assay.procedure: Inhibition of ABCB1 (unknown origin) expressed in HEK293T cells assessed as potentiation of doxorubicin-induced cytotoxicity by measuring doxorubicin IC50 at 10 uM after 72 hrs by MTT assay (Rvb = 1.17 +/- 0.09 microM)
pIC50: −log10 of the molar value.
measured.parameter: pIC50

>>> result("O=c1cc(-c2ccccc2)[nH]c2nc(SCc3nc4ccccc4[nH]3)nn12")
6.42

----------
assay.procedure: Inhibition of ABCB1 in human SW620/Ad300 cells assessed as potentiation of doxorubicin-induced cytotoxicity by measuring doxorubicin IC50 at 4 uM after 72 hrs by MTT assay (Rvb = 6.15 +/- 0.63 microM)
measured.parameter: IC50 (nM)

>>> result("O=c1cc(-c2ccccc2)[nH]c2nc(SCc3nc4ccccc4[nH]3)nn12")
920

----------
assay.procedure: Inhibition of ABCB1 in human SW620/Ad300 cells assessed as potentiation of cisplatin-induced cytotoxicity by measuring cisplatin IC50 at 4 uM after 72 hrs by MTT assay (Rvb = 0.61 +/- 0.03 microM)
pIC50: −log10 of the molar value.
measured.parameter: pIC50

>>> result("O=c1cc(-c2ccccc2)[nH]c2nc(SCc3nc4ccccc4[nH]3)nn12")
5.80

----------
assay.procedure: Inhibition of ABCB1 in human SW620/Ad300 cells assessed as potentiation of cisplatin-induced cytotoxicity by measuring cisplatin IC50 at 10 uM after 72 hrs by MTT assay (Rvb = 0.61 +/- 0.03 microM)
pIC50: −log10 of the molar value.
measured.parameter: pIC50

>>> result("O=c1cc(-c2ccccc2)[nH]c2nc(SCc3nc4ccccc4[nH]3)nn12")
5.81

----------
assay.procedure: Inhibition of ABCB1 in human SW620/Ad300 cells assessed as potentiation of cisplatin-induced cytotoxicity by measuring cisplatin IC50 at 20 uM after 72 hrs by MTT assay (Rvb = 0.61 +/- 0.03 microM)
measured.parameter: IC50 (nM)

>>> result("O=c1cc(-c2ccccc2)[nH]c2nc(SCc3nc4ccccc4[nH]3)nn12")
1640

----------
assay.procedure: Inhibition of ABCB1 (unknown origin) expressed in HEK293T cells assessed as potentiation of paclitaxel-induced cytotoxicity by measuring paclitaxel IC50 at 4 uM after 72 hrs by MTT assay (Rvb = 0.09 +/- 0.02 microM)
measured.parameter: IC50 (nM)

>>> result("O=c1cc(-c2ccccc2)[nH]c2nc(SCc3nc4ccccc4[nH]3)nn12")
30

----------
assay.procedure: Inhibition of ABCB1 in human SW620/Ad300 cells assessed as potentiation of doxorubicin-induced cytotoxicity by measuring doxorubicin IC50 at 20 uM after 72 hrs by MTT assay (Rvb = 6.15 +/- 0.63 microM)
pIC50: −log10 of the molar value.
measured.parameter: pIC50

>>> result("O=c1cc(-c2ccccc2)[nH]c2nc(SCc3nc4ccccc4[nH]3)nn12")
6.10

----------
assay.procedure: Inhibition of ABCB1 in human SW620/Ad300 cells assessed as potentiation of paclitaxel-induced cytotoxicity by measuring paclitaxel IC50 at 4 uM after 72 hrs by MTT assay (Rvb = 3.39 +/- 0.84 microM)
pIC50: −log10 of the molar value.
measured.parameter: pIC50

>>> result("O=c1cc(-c2ccccc2)[nH]c2nc(SCc3nc4ccccc4[nH]3)nn12")
6.08

----------
assay.procedure: Inhibition of ABCB1 in human SW620/Ad300 cells assessed as potentiation of doxorubicin-induced cytotoxicity by measuring doxorubicin IC50 at 10 uM after 72 hrs by MTT assay (Rvb = 6.15 +/- 0.63 microM)
pIC50: −log10 of the molar value.
measured.parameter: pIC50

>>> result("O=c1cc(-c2ccccc2)[nH]c2nc(SCc3nc4ccccc4[nH]3)nn12")
5.89
